Here the recorded Kd is given for each entry.
Target: wild-type cap-binding domain of PB2 (Influenza A virus, UniProt P31345, R389K)
Provide a numeric answer, followed by its unit.

Let me know recorded Kd for Nc1nc2c(ncn2[C@@H]2O[C@H](COP(=O)(O)OP(=O)(O)OP(=O)(O)O)[C@@H](O)[C@H]2O)c(=O)[nH]1 , thanks.
1020 µM

State its Kd: C[n+]1cn([C@@H]2O[C@H](COP(=O)(O)OP(=O)(O)OP(=O)(O)O)[C@@H](O)[C@H]2O)c2nc(N)[nH]c(=O)c21 [m^7GTP, 7-methyl-guanosine triphosphate]
177 µM
